Values compiled from ChEMBL document CHEMBL4219140.

Test summary: Selectivity index, ratio of CC50 for human MT4 cells to EC50 for HIV1 3B expressing wild type reverse transcriptase infected in human MT4 cells
Type: toxicity, cell-based
Condition set: read-out: Ratio CC50/EC50
Readout: selectivity ratio

Cc1ccnc2c1NC(=O)c1cccnc1N2C1CC1 [NEVIRAPINE]: > 34
Cc1cc(C#N)cc(C)c1Oc1nc(Nc2ccc(C#N)cc2)nc2c1ccn2COC(=O)OC(C)C: 190
Cc1cc(C#N)cc(C)c1Oc1nc(Nc2ccc(C#N)cc2)nc(N)c1Br [ETRAVIRINE]: > 1170
Cc1cc(C#N)cc(C)c1Oc1nc(Nc2ccc(C#N)cc2)nc2[nH]ccc12: ≥ 425

Continue with the molecule presented below.
## Input Find the recorded selectivity ratio belonging to O=C1Nc2ccc(Cl)cc2[C@@](C#CC2CC2)(C(F)(F)F)O1 [EFAVIRENZ] and report it.
## Output > 1320
